assay-procedure: inducers of Vibrio cholerae quorum light production without autoinducers, primary screen, BH1578 luxS cqsA deficient, single point (AID 588436)
stated-conditions: V. cholerae BH1578 lux reporter, luminescence, 6 h, at 18.7 µM
Out of some 350,000 compounds screened, about 550 (0.16%) were called active. Rule as the data show it: active = activation mostly above about 9.7% (no sharp cut-off); inconclusive = no clear call, values can overlap the other calls; inactive = mostly below about 3.7%. The entries come from a sample that favours actives as a whole.
The reply should be one of these categories: yes (active), no (inactive)

For orientation, consider the following solved cases.
CN(C)c1ccc(CNC2C3CC4CC(C3)CC2C4)cc1 (centres undefined)    no
CCN1CN(Cc2ccccc2)CNC1=S    no
COc1ccc(NC(=O)CN2C(=O)C(c3ccccc3)=NC23CCCCCC3)cc1OC    no

Q: Entry Cc1cccc(C(=O)OCC(=O)NC(C)C2CC3CCC2C3)c1O (centres undefined) : call = ?
Result: no

Q: What do you have for CC1CN(C(=O)CN2C(=O)NC(C)(c3ccccc3)C2=O)CC(C)O1 (centres undefined) ?
Result: no

Q: What do you have for COc1ccc(Cl)cc1NC(=O)COc1ccc2c(c1)OCO2 ?
Result: no
